- measured-target: B-cell lymphoma 6 protein (Homo sapiens, UniProt P41182)
- assay-overview: Degradation of BCL6 in human OCI-Ly1 cells incubated for 2 hrs by MSD assay
- Assay type: cell-based
Give measured EC50 for each item. Keep answers brief.

Use these answered entries as a reference point.
>  <compound>
C[C@H]1CCCN(c2ncc(Cl)c(Nc3ccc4c(c3)c3c(c(=O)n4C)OCC(F)(F)[C@H](C4CC4)N3)n2)C1

>  <meas-value>
6.3 nM

$$$$
>  <compound>
Cn1c(=O)c2c(c3cc(Nc4nc(N5CCC(F)(F)[C@H](CO)C5)ncc4Cl)ccc31)N[C@@H](C1CC1)C(F)(F)CO2

>  <meas-value>
> 2000 nM

$$$$
>  <compound>
Cn1c(=O)c2c(c3cc(Nc4nc(N5CCC(F)(F)[C@@H](CO)C5)ncc4Cl)ccc31)N[C@@H](C1CC1)C(F)(F)CO2

>  <meas-value>
2.7 nM

$$$$

For each listed entry, give its EC50.
1. C[C@H]1C[C@@H](O)CN(c2ncc(Cl)c(Nc3ccc4c(c3)n(CCC(C)(C)O)c(=O)n4C)n2)C1 (relative stereo)
2. C[C@@H]1CCCN(c2ncc(Cl)c(Nc3ccc4c(c3)c3c(c(=O)n4C)OCC(F)(F)[C@H](C4CC4)N3)n2)C1
3. C[C@@H]1C[C@H](N(C)C)CN(c2ncc(Cl)c(Nc3ccc4c(c3)c3c(c(=O)n4C)OCC(F)(F)[C@H](C4CC4)N3)n2)C1
4. Cn1c(=O)c2c(c3cc(Nc4nc(N5CCC(F)(F)[C@H](O)C5)ncc4Cl)ccc31)N[C@@H](C1CC1)C(F)(F)CO2

OUT:
1. 35 nM
2. 32.6 nM
3. > 2000 nM
4. > 2000 nM

====

- assay-overview: Kinetic aqueous solubility of the compound in 1% DMSO/PBS at pH 7.4 incubated for 2 hrs by UV-vis detection based HPLC analysis
- Format: physicochemical
- study-conditions: PBS with 1% DMSO, read-out: Kinetic_solubility
value-kind: solubility kinetic at 2 h (µM)
Numbers only, in µM.

IN: What solubility kinetic at 2 h value was documented for this compound, "Cn1c(=O)c2c(c3cc(Nc4nc(N5CCC(F)(F)[C@@H](CO)C5)ncc4Cl)ccc31)N[C@@H](C1CC1)C(F)(F)CO2" ?
OUT: 13

====

- assay-overview: Passive membrane permeability of compound in phosphate buffered saline at pH 7.4 at 10 uM incubated for 16 hrs by PAMPA assay based TQ-S LC-MS/MS analysis
- Assay type: ADME
- study-conditions: read-out: permeability
value-kind: Papp at 16 h, 10 µM (×10⁻⁶ cm/s)
Give bare numbers, in ×10⁻⁶ cm/s.

Use these answered entries as a reference point.
>  <smiles>
C[C@@H]1CN(c2ncc(Cl)c(Nc3ccc4c(c3)n(CCC(C)(C)O)c(=O)n4C)n2)C[C@H](C)C1(F)F

>  <value-kind>
Papp at 16 h, 10 µM

>  <scale-unit>
×10⁻⁶ cm/s

>  <meas-value>
33

$$$$
>  <smiles>
C[C@@H]1C[C@H](O)CN(c2ncc(Cl)c(Nc3ccc4c(c3)c3c(c(=O)n4C)OCC(F)(F)[C@H](C4CC4)N3)n2)C1

>  <value-kind>
Papp at 16 h, 10 µM

>  <scale-unit>
×10⁻⁶ cm/s

>  <meas-value>
16

$$$$

Next compound, please.
IN: What Papp at 16 h, 10 µM value was documented for this compound, "Cn1c(=O)c2c(c3cc(Nc4nc(N5CCC(F)(F)[C@@H](CO)C5)ncc4Cl)ccc31)N[C@@H](C1CC1)C(F)(F)CO2" ?
OUT: 21

====

- measured-target: B-cell lymphoma 6 protein (Homo sapiens, UniProt P41182)
- assay-overview: Degradation of BCL6 in human OCI-Ly1 cells incubated for 2 hrs by MSD assay
- Assay type: cell-based
value-kind: EC50 (µM)
Answers are plain numbers, in µM.

>  <compound>
Cn1c(=O)n(CCC(C)(C)O)c2cc(Nc3nc(N4CCC(F)(F)C(O)C4)ncc3Cl)ccc21 (racemic)

>  <scale-unit>
µM

>  <meas-value>
0.276

$$$$

Next compound, please.
IN: What EC50 value was documented for this compound, "CC(=O)N[C@@H]1C[C@H](C)CN(c2ncc(Cl)c(Nc3ccc4c(c3)c3c(c(=O)n4C)OCC(F)(F)[C@H](C4CC4)N3)n2)C1" ?
OUT: 0.0022

====

- assay-overview: Cmax in BALB/c mouse at 1 mg/kg, iv or 5 mg/kg, po measured after 6 hrs post-dose by ESI-LCMS/MS based UPLC analysis
- Format: ADME, organism-based
- Parameters: time 6 hrs, dose 5 mg/kg, route po
- study-conditions: in vivo
value-kind: Cmax (nM)
Give bare numbers, in nM.

>  <smiles>
C[C@H]1C[C@@H](O)CN(c2ncc(Cl)c(Nc3ccc4c(c3)c3c(c(=O)n4C)OCC(F)(F)[C@H](C4CC4)N3)n2)C1

>  <scale-unit>
nM

>  <Cmax>
3950

$$$$

Next molecule, please.
IN: What Cmax value was documented for this molecule, "C[C@@H]1CN(c2ncc(Cl)c(Nc3ccc4c(c3)n(CCC(C)(C)O)c(=O)n4C)n2)C[C@H](C)C1(F)F" ?
OUT: 1580

====

- measured-target: B-cell lymphoma 6 protein (Homo sapiens, UniProt P41182)
- assay-overview: Degradation of BCL6 in human OCI-Ly1 cells incubated for 2 hrs by MSD assay
- Type: cell-based
Give measured pEC50 for each item. Keep answers brief.
Answers are plain numbers, as −log10 of the molar value.

>  <smiles>
C[C@H]1C[C@@H](O)CN(c2ncc(Cl)c(Nc3ccc4c(c3)c3c(c(=O)n4C)OCC(F)(F)[C@H](C4CC4)N3)n2)C1

>  <measured-target>
B-cell lymphoma 6 protein (Homo sapiens, UniProt P41182)

>  <pEC50>
9.15

$$$$
>  <smiles>
C[C@H]1C[C@@H](N(C)C)CN(c2ncc(Cl)c(Nc3ccc4c(c3)c3c(c(=O)n4C)OCC(F)(F)[C@H](C4CC4)N3)n2)C1

>  <measured-target>
B-cell lymphoma 6 protein (Homo sapiens, UniProt P41182)

>  <pEC50>
8.01

$$$$

Next molecule, please.
IN: # returns recorded pEC50 (system: B-cell lymphoma 6 protein (Homo sapiens, UniProt P41182)) for "Cn1c(=O)c2c(c3cc(Nc4nc(N5CCC(F)(F)[C@@H](O)C5)ncc4Cl)ccc31)N[C@@H](C1CC1)C(F)(F)CO2"
OUT: 8.15
